These entries and their values trace back to patent US20250064941A1.

Measured Kd on mouse Siglec-2-Fc-Avi (CD22) (Mus musculus) follows.
Sequence (P35329 22-708 limits assumed): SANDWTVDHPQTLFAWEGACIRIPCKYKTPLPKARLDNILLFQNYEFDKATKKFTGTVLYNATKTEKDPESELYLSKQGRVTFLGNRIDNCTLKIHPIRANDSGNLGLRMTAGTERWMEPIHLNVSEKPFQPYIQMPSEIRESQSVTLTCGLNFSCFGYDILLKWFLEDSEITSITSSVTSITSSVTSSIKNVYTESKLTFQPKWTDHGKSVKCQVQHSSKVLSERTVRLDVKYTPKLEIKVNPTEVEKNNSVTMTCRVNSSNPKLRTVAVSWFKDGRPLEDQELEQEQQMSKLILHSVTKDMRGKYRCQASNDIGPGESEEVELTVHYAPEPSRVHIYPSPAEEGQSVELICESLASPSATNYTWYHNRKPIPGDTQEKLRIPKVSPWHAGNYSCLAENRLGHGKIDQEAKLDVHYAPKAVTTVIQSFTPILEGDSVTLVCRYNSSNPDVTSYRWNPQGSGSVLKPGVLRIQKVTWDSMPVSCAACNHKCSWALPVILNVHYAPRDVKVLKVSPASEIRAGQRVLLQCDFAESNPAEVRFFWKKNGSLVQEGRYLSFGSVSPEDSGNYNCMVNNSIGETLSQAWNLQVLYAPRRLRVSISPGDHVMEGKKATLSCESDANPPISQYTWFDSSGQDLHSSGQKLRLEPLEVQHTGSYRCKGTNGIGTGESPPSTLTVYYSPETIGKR

Compound	System	Kd
C#CCOCCOCCO[C@]1(C(=O)O)C[C@H](O)[C@@H](NC(=O)CO)[C@H]([C@H](O)[C@H](O)CNC(=O)c2cccc(Oc3ccc(O)cc3)c2)O1 [Compound 18]	mouse Siglec-2-Fc-Avi (CD22) (Mus musculus)	1000 to 10000 nM
C#CCOc1ccc(CO[C@]2(C(=O)O)C[C@H](O)[C@@H](NC(=O)CO)[C@H]([C@H](O)[C@H](O)CNC(=O)Cc3ccc(-c4ccc(O)cc4)cc3Cl)O2)cc1 [Compound 52]	mouse Siglec-2-Fc-Avi (CD22) (Mus musculus)	< 1000 nM
C#CCOCCCCCCS[C@]1(C(=O)O)C[C@H](O)[C@@H](NC(=O)CO)[C@H]([C@H](O)[C@H](O)CNC(=O)c2cccc(Oc3ccccc3)c2)O1 [Compound 255]	mouse Siglec-2-Fc-Avi (CD22) (Mus musculus)	1000 to 10000 nM

// next item, Kd requested
Value lookup for Kd; key = CC(=O)NCCOCCOCCOCCOCCNc1c(NCCCCCCO[C@]2(C(=O)O)C[C@H](O)[C@@H](NC(=O)CO)[C@H]([C@H](O)[C@H](O)CNC(=O)Cc3ccc(Cl)cc3)O2)c(=O)c1=O [Compound 240]
< 1000 nM
